- System: 786-0 renal
- Protocol Description: NCI tumour cell line growth inhibition, 48 h
Observation Type: TGI

Check out these entries, answers already filled in.
- Compound: "Cc1cc(Cl)nc2ccc(Cc3ccc4nc(Cl)cc(C)c4c3)cc12"
  TGI: "30.7 µM"
- Compound: "O=C(COc1ccccc1Cl)N1N=C(c2ccccc2)CC1(O)c1ccccc1 (stereo unspecified)"
  TGI: "31 µM"
- Compound: "COc1ccc(-c2cc(/C=C3\\C(=O)Nc4cc(Cl)ccc43)[nH]n2)cc1"
  TGI: "> 100 µM"

What TGI value was documented for this compound, O=C(CN1CCN(Cc2ccccc2Cl)CC1)NC1CC(=O)c2c(Br)sc(Br)c21 (stereo unspecified) ?
40.4 µM

Record request: TGI value, item COc1ccc2c(c1)CC[C@@H]1C2CC[C@]2(C)C(=O)N(CCN(C)C)C(=O)CC12 (stereo partly specified)
> 100 µM

Form field: reported TGI of "Cc1cc2nc3c(C#N)c4c(c(Nc5ccc(F)cc5)n3c2cc1C)CCC4"
> 100 µM

Tell me the measured TGI of NC1N=Nc2ccccc21 (stereo unspecified) , please.
> 100 µM

Which TGI value is on record for "CNC(=O)N(CCC#N)CCN(C(=O)NC)c1ccccc1" ?
> 100 µM

For the compound shown here, CC(C)(C)N/N=C(\C(=O)Nc1cccc(Cl)c1)C1C(=O)Nc2ccccc2S1=O (stereo unspecified) , give the reported TGI.
> 100 µM

Need TGI, item "O=c1cc(-c2ccccc2)[nH]c2ncccc12"
> 100 µM

Recorded TGI for "Cn1cnc(N2CCCC2)c(C#N)c1=S" , please?
> 100 µM

* * *

Measured TGI, listed per entry for reference.
- Tested on: SN12C renal
- Protocol Description: NCI tumour cell line growth inhibition, 48 h
Your answer is read as µM, so omit the unit and give the number.

# count of solved cases: 2
- Compound Smiles: "O=C(CCBr)N1CCN(C(=O)CCBr)CC1"
  Number: 169
- Compound Smiles: "CNC(=O)c1nn(C)c2c1C(C)(C)Cc1cnc(Nc3cccc(N4CCN(C)CC4)c3)nc1-2"
  Number: 31

Now consider the entry below.
Find the recorded TGI belonging to "Cc1ccc(-c2nc3nc(-c4ccc(F)cc4)nc(N4CCNCC4)c3o2)cc1" and report it.
19.8

* * *

- Tested on: SNB-78 CNS
- Protocol Description: NCI tumour cell line growth inhibition, 48 h
Observation Type: log10 TGI (log10 of the value in µM)
// do not treat as linear: log10 of TGI, unit µM

- Compound: "COc1ccc2c(c1)Oc1cc(O)ccc1[C@H]2c1ccccc1C(=O)NC(C)c1ccccc1 (some centres not stated)"
  Observation Type: "log10 TGI"
  Number: 1.53

Which log10 TGI value is on record for "CN(C)CCNC(=O)c1cccc2ccc(-c3ccc(Br)cc3)nc12" ?
1.35

Any idea what log10 TGI was measured for "O=C(CCBr)N1CCN(C(=O)CCBr)CC1" ?
2.47

So what does the record say about log10 TGI for O=C(COc1ccccc1Cl)N1N=C(c2ccccc2)CC1(O)c1ccccc1 (configuration not stated) ?
1.64

Please look up its log10 TGI: "O=C1C=C(Nc2ccccc2C(=O)CC(=O)C(=O)Nc2ccc(Cl)cc2)c2ccccc2C1=O"
1.91

Would you mind telling me what log10 TGI value was observed for CC(=O)c1ccccc1NC(=O)C(=O)C(C(=O)c1ccc2ccccc2c1)C1OC(=O)c2ccccc21 (configuration not stated) ?
1.93

For the compound shown here, "Nc1nc(N)c(CCCCc2ccccc2)c(C=O)n1" , give the reported log10 TGI.
1.91

Measured values drawn from PubChem BioAssay (NCI) for this set.
